Molecular target: hTRPV1 (Homo sapiens, UniProt Q8NER1)
Sequence (Q8NER1 whole entry): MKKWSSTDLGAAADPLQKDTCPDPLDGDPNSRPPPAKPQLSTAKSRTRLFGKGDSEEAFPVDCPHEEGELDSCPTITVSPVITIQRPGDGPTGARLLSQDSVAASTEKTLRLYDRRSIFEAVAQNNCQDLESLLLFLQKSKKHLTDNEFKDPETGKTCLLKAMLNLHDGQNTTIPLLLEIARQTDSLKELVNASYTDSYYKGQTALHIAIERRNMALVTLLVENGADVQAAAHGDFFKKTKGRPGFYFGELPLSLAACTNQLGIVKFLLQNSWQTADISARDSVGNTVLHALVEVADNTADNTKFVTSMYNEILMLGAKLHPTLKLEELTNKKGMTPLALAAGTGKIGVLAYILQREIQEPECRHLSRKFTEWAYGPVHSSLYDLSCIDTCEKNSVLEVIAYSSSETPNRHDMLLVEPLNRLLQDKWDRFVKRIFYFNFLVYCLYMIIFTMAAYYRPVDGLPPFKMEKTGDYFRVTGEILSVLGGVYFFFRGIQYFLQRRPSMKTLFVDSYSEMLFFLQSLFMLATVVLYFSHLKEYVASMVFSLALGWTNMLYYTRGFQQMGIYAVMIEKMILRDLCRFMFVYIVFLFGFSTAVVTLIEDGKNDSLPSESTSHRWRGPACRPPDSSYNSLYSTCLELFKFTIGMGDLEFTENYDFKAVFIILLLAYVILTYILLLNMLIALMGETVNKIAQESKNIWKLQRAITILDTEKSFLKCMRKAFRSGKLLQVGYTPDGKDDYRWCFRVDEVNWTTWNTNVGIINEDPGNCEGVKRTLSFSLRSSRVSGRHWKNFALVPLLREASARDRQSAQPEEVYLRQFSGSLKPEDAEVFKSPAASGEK
Test: Human TRPV1 (hTRPV1) functional assay, FLIPR intracellular Ca2+, capsaicin challenge
Conditions: derived from a variety of test concentrations; HEK293 cells expressing hTRPV1, capsaicin 0.030 μM challenge; read-out: IC50 value (symbol c)
measured metric: IC50

molecule | system tested | measured metric | result value
CS(=O)(=O)c1ccccc1-c1ccc2[nH]c(COc3ccc(Cl)c(Cl)c3)nc2c1 | hTRPV1 (Homo sapiens, UniProt Q8NER1) | IC50 | 58 nM
NS(=O)(=O)c1ccccc1-c1ccc2[nH]c(C(F)(F)Oc3ccc(C(F)(F)F)cc3)nc2c1 | hTRPV1 (Homo sapiens, UniProt Q8NER1) | IC50 | 21 nM
CNS(=O)(=O)c1ccccc1-c1ccc2[nH]c(COc3ccc(C(C)C)cc3)nc2c1 | hTRPV1 (Homo sapiens, UniProt Q8NER1) | IC50 | 7.8 nM
OCC(O)c1ccccc1-c1ccc2[nH]c(COc3ccc(C(F)(F)F)cc3)nc2c1 (centres unmarked) | hTRPV1 (Homo sapiens, UniProt Q8NER1) | IC50 | 16 nM
CS(=O)(=O)c1ccccc1-c1ccc2[nH]c(COc3ccc4ccccc4c3)nc2c1 | hTRPV1 (Homo sapiens, UniProt Q8NER1) | IC50 | 14 nM
NS(=O)(=O)c1ccccc1-c1ccc2[nH]c(COc3ccc(SC(F)(F)F)cc3)nc2c1 | hTRPV1 (Homo sapiens, UniProt Q8NER1) | IC50 | 13 nM
NS(=O)(=O)c1ccccc1-c1ccc2[nH]c(COc3ccccc3)nc2c1 | hTRPV1 (Homo sapiens, UniProt Q8NER1) | IC50 | 177 nM
Cc1ccc(OCc2nc3cc(-c4ccccc4S(C)(=O)=O)ccc3[nH]2)c(C)c1 | hTRPV1 (Homo sapiens, UniProt Q8NER1) | IC50 | 52 nM
CS(=O)(=O)c1ccccc1-c1ccc2[nH]c(COc3ccc4c(c3)CCCC4)nc2c1 | hTRPV1 (Homo sapiens, UniProt Q8NER1) | IC50 | 14 nM
CN(C)S(=O)(=O)c1ccccc1-c1ccc2[nH]c(C(F)(F)Oc3ccc(C(F)(F)F)cc3)nc2c1 | hTRPV1 (Homo sapiens, UniProt Q8NER1) | IC50 | 83 nM
NS(=O)(=O)c1ccccc1-c1ccc2[nH]c(COc3cccc(C(F)(F)F)c3)nc2c1 | hTRPV1 (Homo sapiens, UniProt Q8NER1) | IC50 | 61 nM
Cc1ccc(OCc2nc3cc(-c4ccccc4S(N)(=O)=O)ccc3[nH]2)cc1 | hTRPV1 (Homo sapiens, UniProt Q8NER1) | IC50 | 12 nM
CS(=O)(=O)c1ccccc1-c1ccc2[nH]c(COc3ccc(C4CC4)cc3)nc2c1 | hTRPV1 (Homo sapiens, UniProt Q8NER1) | IC50 | 7 nM
CC(O)c1ccccc1-c1ccc2[nH]c(COc3ccc(C(F)(F)F)cc3)nc2c1 (centres unmarked) [Cpd 110] | hTRPV1 (Homo sapiens, UniProt Q8NER1) | IC50 | 58 nM
CN(C)S(=O)(=O)c1ccccc1-c1ccc2[nH]c(COc3ccc(C4CC4)cc3)nc2c1 | hTRPV1 (Homo sapiens, UniProt Q8NER1) | IC50 | 7 nM
CCOc1ccc(OCc2nc3cc(-c4ccccc4S(C)(=O)=O)ccc3[nH]2)cc1 | hTRPV1 (Homo sapiens, UniProt Q8NER1) | IC50 | 85 nM
CS(=O)(=O)c1ccccc1-c1ccc2[nH]c(COc3ccc(Cl)cc3)nc2c1 | hTRPV1 (Homo sapiens, UniProt Q8NER1) | IC50 | 18 nM
